- Test system: OVA antigen
- EXPERIMENT_SUMMARY: IgG titer with OVA antigen (indirect ELISA, immunized mice)
- Format: in vivo, BALB/c mice
- RUN_CONDITIONS: dose 1 μg
QUANTITY_NAME: IgG titer with OVA antigen

Some compounds with recorded IgG titer with OVA antigen:
COMPOUND	QUANTITY_NAME	OBSERVED_VALUE
CCCCCCCCCCCC(=O)OCCCCCCCC(=O)N[C@H]1C(O)O[C@H](CO)[C@@H](O)[C@@H]1O[C@H](C)C(=O)N[C@@H](C)C(=O)N[C@H](CCC(=O)O)C(N)=O (some centres unmarked) [15g]	IgG titer with OVA antigen	25000-124000
C[C@H](NC(=O)[C@@H](C)O[C@H]1[C@H](O)[C@@H](CO)OC(O)[C@@H]1NC(=O)C1CCC1)C(=O)N[C@H](CCC(=O)O)C(N)=O (some centres unmarked) [15c]	IgG titer with OVA antigen	25000-102400
CCCCCCCC(=O)OCCCCCCCC(=O)N[C@H]1C(O)O[C@H](CO)[C@@H](O)[C@@H]1O[C@H](C)C(=O)N[C@@H](C)C(=O)N[C@H](CCC(=O)O)C(N)=O (some centres unmarked)	IgG titer with OVA antigen	8750-64000

The compound C[C@H](NC(=O)[C@@H](C)O[C@H]1[C@H](O)[C@@H](CO)OC(O)[C@@H]1NC(=O)C1CCCO1)C(=O)N[C@H](CCC(=O)O)C(N)=O (some centres unmarked) [15i] , tested on OVA antigen, showed IgG titer with OVA antigen of 4800-50000

The compound C[C@H](NC(=O)[C@@H](C)O[C@H]1[C@H](O)[C@@H](CO)OC(O)[C@@H]1NC(=O)C1CCCCC1)C(=O)N[C@H](CCC(=O)O)C(N)=O (some centres unmarked) [15e] , tested on OVA antigen, showed IgG titer with OVA antigen of 1600-12400

The compound CCCCCCCCCCCCCC(=O)OCCCCCCCC(=O)N[C@H]1C(O)O[C@H](CO)[C@@H](O)[C@@H]1O[C@H](C)C(=O)N[C@@H](C)C(=O)N[C@H](CCC(=O)O)C(N)=O (some centres unmarked) [15f] , tested on OVA antigen, showed IgG titer with OVA antigen of 8000-25400

The compound C[C@H](NC(=O)[C@@H](C)O[C@H]1[C@H](O)[C@@H](CO)OC(O)[C@@H]1NC(=O)C1CC1)C(=O)N[C@H](CCC(=O)O)C(N)=O (some centres unmarked) [15b] , tested on OVA antigen, showed IgG titer with OVA antigen of 1600-124000

The compound C[C@H](NC(=O)[C@@H](C)O[C@H]1[C@H](O)[C@@H](CO)OC(O)[C@@H]1NC(=O)C1CCCC1)C(=O)N[C@H](CCC(=O)O)C(N)=O (some centres unmarked) [15d] , tested on OVA antigen, showed IgG titer with OVA antigen of 3200-12400
